# Test system: NCI/ADR-RES
# METHOD: NCI tumour cell line growth inhibition, 48 h
Calls of active or inactive are those of the source. Rule as the data show it: active = GI50 up to about 1.1 µM and inactive = higher. Residues, ends and D or L forms follow the SMILES beside them. *: point of attachment. Cbz = O=C(OCc1ccccc1)*
Form entry, call: pick from active, inactive

Query string: Recorded call for `C=C1C(=O)C=C[C@]2(C)CC[C@H]3C(=C)C(=O)O[C@@H]3[C@@H]12` ?
Result string: inactive

Query string: Entry `Nc1[nH]nc2ccccc12` : call = ?
Result string: inactive

Query string: Which outcome was entered for the molecule `COc1cccc(N/C(C)=C2/CCOC2=O)c1` in this test?
Result string: inactive

Query string: Would you mind telling me which call this test gave CCOC(=O)CCC(NC(=O)OCc1ccccc1)C(=O)NC(CCC(=O)OCC)C(=O)OCC (stereo unspecified) (Cbz-Glu(OEt)-Glu(OEt)-OEt; configuration not given here) ?
Result string: inactive

Query string: Could you please tell me the result logged for `Cc1ccc(/N=C/C=C(\Nc2ccc(C)cc2)c2ccc3ccccc3c2)cc1` in this assay?
Result string: active

Query string: Give the logged outcome of this assay for the following molecule: `Cc1nc(C(N)=S)sc1C(=O)CC(=O)C(=O)Nc1cccc(Cl)c1C`
Result string: inactive

Query string: Which outcome did this test record for the molecule `COc1ccc2nc3ccccc3c(NCCCCCCN(CCCl)CCCl)c2c1` ?
Result string: active

Query string: Can you look up the reported call for `CCCn1c(CN(Cc2nc3ccccc3n2CCC)Cc2nc3ccccc3n2CCC)nc2ccccc21` for me?
Result string: inactive

Query string: Give the logged outcome of this assay for the following molecule: `COc1cc(Nc2nc3cc(C(F)(F)F)ccc3n3cccc23)cc(OC)c1OC`
Result string: inactive

Query string: Kindly provide the recorded test outcome for the following molecule: `O=C1NC(N2CCCCC2)=N/C1=C\c1ccccc1O`
Result string: inactive

Query string: # lookup: test call for Cc1csc2c(=O)n(C3OC(CO)C(O)C3O)c(=O)[nH]c12 (stereo unspecified)
Result string: inactive

* * *

Kindly state GI50 for each of the entries shown.
# Test system: HOP-92
# METHOD: NCI tumour cell line growth inhibition, 48 h
Calls of active or inactive are those of the source. No stated cut-off is given here; in the data, active = GI50 up to about 1.1 µM and inactive = higher.

For record O=C1C2=C(c3ccccc31)C(c1ccccc1)NC(S)=N2 (stereo unspecified) the listed GI50 is 14.8 µM (inactive)

Short answer for `NC(=O)c1cc(N(CCO)CCO)c([N+](=O)[O-])cc1[N+](=O)[O-]` : GI50 was > 100 µM (inactive)

Reported GI50 ( `Cc1cc(NCCCCCCCNc2cc(C)nc3cc([N+](=O)[O-])ccc23)c2ccc([N+](=O)[O-])cc2n1` ) = 16.5 µM (inactive)

Data point: Cc1ccc(S(=O)(=O)N/N=C2\CC(C)OC3=C2CCCCCC3)cc1 (stereo unspecified) ; GI50 = 19.6 µM (inactive)

Memo: `CCOC(=O)COc1ccc(OCC(=O)OCC)c2c1C(=O)CCCC2=O` , reported GI50: > 100 µM (inactive)

Per the records, this compound ( COc1ccc(N2C(=O)CC(=O)N(NC(=O)C(C)Oc3ccccc3C)C2=S)cc1 (stereo unspecified) ) has GI50 equal to > 100 µM (inactive)

Given item `Fc1ccccc1-c1nn2c(C34CC5CC(CC(C5)C3)C4)nnc2s1` , the value recorded as its GI50 is > 100 µM (inactive)

compound `Cc1cc(-c2ccc(C(=O)C(c3ccccc3)(c3ccccc3)c3ccccc3)[nH]2)on1` , GI50 observed: 16.1 µM (inactive)

Lab note: CCCCCCCC/C=C/CCCCCCCC1CC(O)C(=O)O1 (stereo unspecified) gave GI50 of 26.7 µM (inactive)

GI50 reported for this compound COc1cc2c(cc1OC)C(Cl)C(c1ccc(F)cc1)=C2Cl (stereo unspecified) : 9.08 µM (inactive)

GI50 reported for this compound `CCOC(=O)/N=c1/nc(N(C)C)ss1` : > 100 µM (inactive)

Record `O=C(/C=C/c1c(O)ccc2ccccc12)c1cccc(O)c1` . Reported GI50: > 62.8 µM (inactive)

Briefly, GI50 measured for `CC1=C2C(=O)c3ccccc3C(=O)[C@H]2[C@H]2CCO[C@H]2O1` : 20 µM (inactive)

GI50 for `CC(=O)OCCOc1cc2c([nH]c3ccccc32)c(C)c2cccc1-2` is 1.86 µM (inactive)

Entry `O=C1c2ccccc2C(=O)N1[C@@H](Cc1ccccc1)C(=O)n1cccc1CO` ; GI50 = > 100 µM (inactive)

Reported GI50 for `COc1cc2nc(-c3cccc(N(C)C)c3)cc(O)c2cc1OC` was > 100 µM (inactive)

GI50 measured on O=C(CC(=O)N1N=C(N2CCCCC2)CC1c1ccccc1)Nc1ccccc1 (stereo unspecified) = 91 µM (inactive)

Reported GI50 for `O=C(O)C1=C(Cl)c2ccccc2S1(=O)=O` was > 100 µM (inactive)

# GI50 of `O=c1[nH]nc(-c2ccccc2)n1-c1cccc([N+](=O)[O-])c1` = > 100 µM (inactive)

get_value(item= `O=C1N=C(SC(SC2=NC(=O)C3(NN2)c2ccccc2-c2ccccc23)=C(SC2=NC(=O)C3(NN2)c2ccccc2-c2ccccc23)SC2=NC(=O)C3(NN2)c2ccccc2-c2ccccc23)NNC12c1ccccc1-c1ccccc12` , readout=GI50) returns > 10 µM (inactive)

The recorded GI50 for `CC(C)C(=O)NC(=S)Nc1ccc([N+](=O)[O-])cc1C#N` is > 100 µM (inactive)

Sample `O=c1cc(-c2ccccc2)[nH]c2cc(Cl)cc(Cl)c12` ; GI50 observed: 25.5 µM (inactive)

Entry `COc1cc(Nc2nc3ccccc3nc2-c2cccs2)cc(OC)c1OC` — recorded GI50 = 13.9 µM (inactive)

# compound CON(C)C(=O)C(C)NC(=O)OCc1ccccc1 (stereo unspecified) ; its GI50 = > 100 µM (inactive)

Kindly note the recorded GI50 for `N#CNc1nc(C(=O)Nc2ccc(Cl)cc2)cc(-c2ccccc2)n1` , which is > 100 µM (inactive)

GI50 recorded for this compound, `NC(=S)N/N=C/c1nccc2ccccc12` , is 2.74 µM (inactive)

Entry under test: CC1(C)OC1COc1c2occc2cc2ccc(=O)oc12 (stereo unspecified) . Its GI50 was > 100 µM (inactive)

Form: compound = `O=C1C=C(Nc2ccc(Cl)cc2Cl)c2ccccc2C1=O` ; GI50 = 21.2 µM (inactive)

Item: `C1=C\CCCCN2C[C@H]3CCCC/C=C\CCCCN4CC[C@@H]([C@H](CCCCCC/1)C4)[C@H](C3)C2` | GI50: 2.38 µM (inactive)

The measured GI50 associated with `Cc1ccn2c(CCc3nnc4cc(C)ccn34)nnc2c1` reads > 100 µM (inactive)

Measured GI50, COC(=O)C(Br)C1CCc2ccccc21 (stereo unspecified) : > 100 µM (inactive)

Memo: CC1CC(=O)C(CC(=O)O)[C@H]1C(C(=O)C(=O)Nc1cc(Cl)ccc1Cl)[N+](=O)[O-] (stereo partly specified) , reported GI50: > 100 µM (inactive)

Field GI50 (entry `CCCSc1ccc2[nH]c(N3C(=O)/C(=C/c4cc(OC)c(OC)c(OC)c4)N=C3c3ccccc3)cc2c1` ) reads 13.9 µM (inactive)

Entry `Cc1c(C#N)c2nnn(C)c(=O)n2c1-c1ccccc1` ; GI50 = > 100 µM (inactive)

Per the record, CC(C)C1=CC23CCC4C(C)(C(=O)O)CCCC4(C)C2CC1C1C(=O)N(c2ccc(N4C(=O)C5C6CC7C8(C)CCCC(C)(C(=O)O)C8CCC7(C=C6C(C)C)C5C4=O)cc2)C(=O)C13 (stereo unspecified) has GI50 of 14.7 µM (inactive)

Measured GI50, COc1cc(C2S/C(=C/c3ccccc3)C(=O)N2Cc2ccccc2)cc(OC)c1OC (stereo unspecified) : 28.8 µM (inactive)

Lab note: Cc1ccc(/C=C2\CN(C)CC3C(c4ccc(C)cc4)=C(C#N)C(=O)NC23)cc1 (stereo unspecified) gave GI50 of 29.3 µM (inactive)

GI50 measured on `Cc1ccc(/N=C/C=C(\Nc2ccc(C)cc2)c2ccc3ccccc3c2)cc1` = 10.6 µM (inactive)

Form field GI50, entry `Cc1nc(C(N)=S)sc1C(=O)CC(=O)C(=O)Nc1cccc(Cl)c1C` : > 100 µM (inactive)

Kindly note the recorded GI50 for `O=C(CSc1nc2ccccc2c2ccccc12)c1ccccc1` , which is > 100 µM (inactive)

Briefly, GI50 measured for `CC(C)(C)CI` : 26.2 µM (inactive)
